Below: a set of entries, each annotated with reported log10 of IC50.
# ASSAYED TARGET: Neutrophil collagenase (Homo sapiens, UniProt P22894)
# Sequence (P22894 whole entry): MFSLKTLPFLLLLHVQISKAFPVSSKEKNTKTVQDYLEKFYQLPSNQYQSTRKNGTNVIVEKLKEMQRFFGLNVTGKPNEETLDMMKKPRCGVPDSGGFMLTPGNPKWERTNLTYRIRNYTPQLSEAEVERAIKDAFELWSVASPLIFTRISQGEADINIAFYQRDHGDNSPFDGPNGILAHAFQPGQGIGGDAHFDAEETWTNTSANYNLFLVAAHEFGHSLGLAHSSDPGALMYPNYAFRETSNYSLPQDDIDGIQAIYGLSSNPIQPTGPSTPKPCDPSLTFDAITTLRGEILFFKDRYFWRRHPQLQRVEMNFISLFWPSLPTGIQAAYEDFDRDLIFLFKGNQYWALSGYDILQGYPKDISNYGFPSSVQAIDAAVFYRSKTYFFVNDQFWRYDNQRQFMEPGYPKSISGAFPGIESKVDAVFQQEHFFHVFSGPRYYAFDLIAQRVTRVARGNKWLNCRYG
# EXPERIMENTAL DETAILS: Inhibition of recombinant human […]-activated MMP8 using Cy3-PLGLK(Cy5Q)AR-NH2 as substrate measured after 40 mins by spectrofluorimetric method
PROPERTY: log10 of IC50 (log10 of the value in nM)

>>> result_value("CCOCCC1(Oc2ccc(-c3cccc(CNC(=O)c4nc5ccccc5c(=O)[nH]4)c3)cc2)C(=O)NC(=O)NC1=O")
1.75
>>> result_value("O=C(NCc1cccc(OCCCS(=O)(=O)N2CCCCC2C(=O)O)c1)c1nc2ccccc2c(=O)[nH]1 (stereo not drawn)")
1.15
>>> result_value("O=C(NCc1cccc(-c2ccc(CS(=O)(=O)Cc3n[nH]c(=O)[nH]3)cc2)c1)c1nc2scc(-c3cccc(Cl)c3)c2c(=O)[nH]1")
3.00
>>> result_value("CC(C)C(CS(=O)(=O)c1ccc(-c2cccc(CNC(=O)c3nc4ccccc4c(=O)[nH]3)c2)cc1)N(O)C=O (stereo not drawn)")
0.11
>>> result_value("O=C(NCc1cccc(N2CCN(C(=O)Cc3n[nH]c(=O)[nH]3)CC2)c1)c1nc2ccccc2c(=O)[nH]1")
0.59
>>> result_value("CC(C)C(CS(=O)(=O)c1ccc(-c2cccc(CNC(=O)c3nc4ccccc4c(=O)[nH]3)c2)cc1)N(O)C(N)=O (stereo not drawn)")
1.28
>>> result_value("O=C(NCc1cccc(OCCCS(=O)(=O)N2CCCCC2C(=O)NO)c1)c1nc2ccccc2c(=O)[nH]1 (stereo not drawn)")
0.08
